# %Inh values compiled below
# Tested on: CDC2L2;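 further: KINOMEscan kinase panel screen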
# measurement-parameters: concentration: 1 μM, replicates: in singlicate; n = 1
Answer in %, number only, no unit symbol.

Please review the following examples before continuing.
COc1cccc(NC(=O)NCCNc2ccnc(Nc3ccc(F)cc3)n2)c1    27
CC(=O)Nc1cn2nc(Oc3cccc(NC(=O)c4cccc(C(F)(F)F)c4)c3)ccc2n1    14
Cc1ccc(Nc2ccnc(Nc3ccc(C)c(F)c3)n2)cc1O.Cl    0
Cl.Cl.NC(CNC(=O)c1cc(Br)c(-c2ccnc3[nH]ccc23)s1)c1ccccc1 (centres unmarked)    9
Nc1ncc(-c2cn[nH]c2)c2scc(-c3ccc4c(c3)CCN4C(=O)Cc3ccccc3)c12    0

Exam item: Tell me its %Inh given COc1cccc(-c2nc(-c3ccccc3)[nH]c2-c2ccncc2)c1 as the entry.
Marked response: 0

Exam item: Tell me its %Inh given Cc1ccc(C)c(NC(=O)Nc2ccc(C)c(-c3ccc(C(=O)Nc4ccncc4)cc3)c2)c1 as the entry.
Marked response: 5

Exam item: Tell me its %Inh given Cc1cc(-c2c(-c3ccc(F)cc3)ncn2CCCN2CCOCC2)nc(N)n1 as the entry.
Marked response: 8

Exam item: Tell me its %Inh given O=C(Nc1n[nH]c2nc(-c3cccc(O)c3)ccc12)C1CC1 as the entry.
Marked response: 0

Exam item: Tell me its %Inh given CC(C)c1nc(-c2ccc(F)c(NS(=O)(=O)c3c(F)cccc3F)c2)c(-c2ccnc(Nc3ccc(N4CCOCC4)nc3)n2)s1 as the entry.
Marked response: 0

Exam item: Tell me its %Inh given Cc1ccc(NC(=O)c2ccc(Cl)c(Cl)c2)cc1-c1ccc(C(=O)Nc2ccncc2)cc1 as the entry.
Marked response: 14

Exam item: Tell me its %Inh given Cc1nn2c(=O)cc(N3CCO[C@H](C)C3)nc2n1Cc1cccc(Cl)c1Cl as the entry.
Marked response: 4

Exam item: Tell me its %Inh given Cn1cc(-c2ccc3c(c2)CCN3C(=O)Cc2cc(F)cc(F)c2F)c2c(N)ncnc21 as the entry.
Marked response: 19

Exam item: Tell me its %Inh given COC(=O)Nc1nc2ccc(Oc3ccc(NC(=O)Nc4cc(C(F)(F)F)ccc4F)cc3)cc2[nH]1.Cl as the entry.
Marked response: 4

Exam item: Tell me its %Inh given COc1cc(Nc2ccnc3cc(-c4ccncc4)ccc23)cc(OC)c1OC.Cl as the entry.
Marked response: 0

Exam item: Tell me its %Inh given COc1cccc(C2=C(Nc3cccc(O)c3)C(=O)NC2=O)c1 as the entry.
Marked response: 15

Exam item: Tell me its %Inh given COC(=O)Nc1nc2ccc(Oc3ccc(CC(=O)Nc4cc(C(F)(F)F)ccc4F)cc3)cc2[nH]1 as the entry.
Marked response: 8
